- Test system: A431 (human)
- Test Method Notes: cells
- Experimental Context: A431, 72 h
pIC50: −log10 of the molar value.
Attribute: pIC50
Measured Property: pIC50

CCCCc1nc(Cl)c(C=O)n1CCCOc1cc2c(Nc3cccc(F)c3)ncnc2cc1OC ... 4.92
CCCCc1nc(Cl)c(CO)n1CCCOc1cc2c(Nc3cccc(I)c3)ncnc2cc1OC ... 5.00
COc1cc2ncnc(Nc3ccc(F)c(Cl)c3)c2cc1OCCCSc1nc2ccccc2s1 ... 5.27
CCCCc1nc(Cl)c(C=O)n1CCCOc1cc2c(Nc3cccc(I)c3)ncnc2cc1OC ... 5.52
CCCCc1nc(Cl)c(CO)n1CCCOc1cc2c(Nc3cccc(F)c3)ncnc2cc1OC ... 4.75
COc1cc2ncnc(Nc3ccc(OC(F)(F)F)cc3)c2cc1OCCCSc1nc2ccccc2o1 ... 5.04
C#Cc1cccc(Nc2ncnc3cc(OC)c(OCCCn4c(CCCC)nc(Cl)c4CO)cc23)c1 ... 5.00
COc1cc2ncnc(Nc3ccc(C)cc3)c2cc1OCCCSc1nc2ccccc2o1 ... 4.92
CCCCc1nc(Cl)c(C=O)n1CCCOc1cc2c(Nc3cccc(Br)c3)ncnc2cc1OC ... 5.19
COc1cc2ncnc(Nc3ccc(C)cc3)c2cc1OCCCSc1nc2ccccc2s1 ... 4.85
